Experiment: Lipophilicity log k by RP-HPLC
Details: RP-HPLC capacity factor, C18, MeOH 70%/H2O 30%, 30 °C
recorded-endpoint: log k
Give only the figure.

For Cc1nc(C#N)c(C#N)nc1NCc1ccc(Cl)c(Cl)c1 , write its log k. 0.7538

Indicate its recorded log k; the compound in question is Cc1nc(C#N)c(C#N)nc1NCc1cccc(Cl)c1 0.5172

State, in one line, measured log k of Cc1nc(C#N)c(C#N)nc1NCc1ccc(Cl)cc1 0.5384

Give log k for the following compound: Cc1nc(C#N)c(C#N)nc1NCc1cccc([N+](=O)[O-])c1 0.1808

Report measured log k; entry is Cc1nc(C#N)c(C#N)nc1NCc1cccc(C(F)(F)F)c1 0.5369
